Entries and their inhibition at 100 µM
- experimental_target: soybean lipoxygenase (LOX) (Glycine max, UniProt P08170)
- Construct: purchased Sigma Chemical, Co. (St. Louis, MO, USA)
- Sequence (P08170 whole entry): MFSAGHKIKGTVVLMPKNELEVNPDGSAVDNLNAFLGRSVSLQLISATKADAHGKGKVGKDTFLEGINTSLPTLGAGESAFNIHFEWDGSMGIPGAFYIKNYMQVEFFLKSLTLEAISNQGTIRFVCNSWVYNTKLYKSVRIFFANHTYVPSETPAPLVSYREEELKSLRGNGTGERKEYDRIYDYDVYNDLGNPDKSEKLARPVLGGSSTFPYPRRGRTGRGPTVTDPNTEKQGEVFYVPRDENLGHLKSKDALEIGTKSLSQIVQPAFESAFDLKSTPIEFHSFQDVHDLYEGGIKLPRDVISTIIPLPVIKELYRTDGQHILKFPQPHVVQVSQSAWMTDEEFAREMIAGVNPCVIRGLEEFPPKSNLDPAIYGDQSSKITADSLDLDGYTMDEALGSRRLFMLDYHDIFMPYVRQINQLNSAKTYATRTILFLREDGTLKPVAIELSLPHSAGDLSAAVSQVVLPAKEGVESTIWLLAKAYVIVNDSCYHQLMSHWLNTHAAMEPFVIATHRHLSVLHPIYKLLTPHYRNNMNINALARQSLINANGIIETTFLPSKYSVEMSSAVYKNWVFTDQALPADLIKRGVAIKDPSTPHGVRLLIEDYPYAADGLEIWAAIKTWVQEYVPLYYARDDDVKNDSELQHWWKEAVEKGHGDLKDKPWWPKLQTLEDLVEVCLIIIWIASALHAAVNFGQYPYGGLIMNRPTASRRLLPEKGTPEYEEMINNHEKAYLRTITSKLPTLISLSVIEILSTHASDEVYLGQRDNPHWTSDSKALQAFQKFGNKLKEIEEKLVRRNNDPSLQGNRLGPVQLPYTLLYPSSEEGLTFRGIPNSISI
- test: in vitro inhibition of soybean lipoxygenase, UV absorbance based enzyme assay
- Assay type: biochemical
- experimental_setup: 100 μM compound; sodium linoleate 0.1 mM, pH 9; read-out: % LOX Inhibition at 100 Μμ
Number in %, nothing else.

Form: compound = COC(=O)c1ccccc1NC(=O)COc1ccc2ccc(=O)oc2c1 [Compound 9a] ; inhibition at 100 µM = 33

Form: compound = O=C(COc1ccc2oc(=O)ccc2c1)NCCc1ccccc1 [Compound 4b] ; inhibition at 100 µM = 85

Form: compound = O=C(COc1ccc2oc(=O)ccc2c1)Nc1ccc(F)cc1 [Compound 8b] ; inhibition at 100 µM = 11

Form: compound = O=C(COc1ccc2oc(=O)ccc2c1)NCc1ccc(F)cc1 [Compound 6b] ; inhibition at 100 µM = 26

Form: compound = O=C(COc1ccc2ccc(=O)oc2c1)NCc1ccc(F)cc1 [Compound 6a] ; inhibition at 100 µM = 63

New cases:
Form: compound = O=C(COc1ccc2ccc(=O)oc2c1)NCc1ccccc1 [Compound 5a] ; inhibition at 100 µM = 45

Form: compound = O=C(COc1ccc2ccc(=O)oc2c1)Nc1ccc(F)cc1 [Compound 8a] ; inhibition at 100 µM = 43

Form: compound = O=C(COc1ccc2oc(=O)ccc2c1)Nc1ccccc1 [Compound 7b] ; inhibition at 100 µM = 45

Form: compound = O=C(COc1ccc2oc(=O)ccc2c1)NCCN1CCCCC1 [Compound 13b] ; inhibition at 100 µM = 37.6

These data points were gathered from paper PMC6017447.
